tested on: SEM cells; test: cell viability relative to DMSO control; higher = less cytotoxic; conditions: RPMI 5 mM glucose + 10% dialyzed FBS; 48 h; 0.00234 µM
metric: cell viability (%)
Numeric only. Scale: %

Some solved entries appear below for comparison.
Tell me cell viability reported for `O=C(O)c1cccc(-c2noc(-c3ccccc3F)n2)c1` 106

Answer with the recorded cell viability of `CCC(=O)O[C@@]1(CC[C@H]2[C@@H]3CCC/4=C/C(=O)CC[C@]4(C)[C@H]3CC[C@]12C)C(=O)CO` only. 103

Please indicate cell viability recorded for `COc1ccc(/C=C/C(=O)Nc2ccccc2C(=O)O)cc1OC` 115

Answer with reported cell viability of Clc1ccc(C(c2ccc(Cl)cc2)[n+]2ccn(CC(OCc3ccc(Cl)cc3Cl)c3ccc(Cl)cc3Cl)c2)cc1 (centres undefined) 117

# return recorded cell viability for entry `CC(C)[C@H](O)C(=O)N[C@@H](C)C(=O)N[C@@H]1C(=O)N(C)CCc2ccccc21` 135

Now for another entry.
Give cell viability for the following compound: `CC[C@H](CO)Nc1nc(NCc2ccccc2)c2ncn(C(C)C)c2n1` 102
